target.under.test: Aryl hydrocarbon receptor (Homo sapiens)
protocol: AHR activators, primary screen, cell-based, luminescence, luciferase reporter, human (AID 2796);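 further: 0% = vehicle wells and 100% = reference agonist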
condition.set: AHR-responsive luciferase reporter cells, at 5 µM, active compounds read high
Among all 320,000 compounds or so, about 8,000 (2.5%) were called active. The entries come from a sample that favours actives as a whole.
# Lookup of reported activation keyed by entry
The figure you give is taken to be in %; do not add the unit.

Solved cases (5 shown):
O=C(Cn1c(NCCO)nc2ccccc21)c1ccc(Cl)cc1Cl : 103
O=C(NC1CCCC1)C(c1c(F)cccc1Cl)N(C(=O)c1csnn1)C1CC1 (stereo not drawn) : 1.3
Cc1noc(C)c1S(=O)(=O)N(C)C[C@H]1Oc2c(NC(=O)Nc3ccc4c(c3)OCO4)cccc2C(=O)N([C@H](C)CO)C[C@@H]1C : 0.19
CCOC(=O)C1=NNC2(c3ccc(Cl)cc3)C(=O)N(c3cc(C)cc(C)c3)C(=O)C12 (stereo not drawn) : 5.66
CC(C)CC1NC(=O)c2cc(Cl)ccc2-n2c1nc1ccccc1c2=O (stereo not drawn) : 20.2

Query block: Name the recorded activation of the compound listed here: Nc1c(C(=O)NCc2ccccc2)sc2nc3c(cc12)C(=O)CCC3
Result block: 2.82

Query block: Name the recorded activation of the compound listed here: CC(C)Cn1c(CCC(=O)O)ccc1-c1cccs1
Result block: -1.84

Query block: Name the recorded activation of the compound listed here: CC(C)CCNC(=O)C1CCC(CNc2c(N3CCC(C)CC3)c(=O)c2=O)CC1 (stereo not drawn)
Result block: 7.38

* * *

target.under.test: Aryl hydrocarbon receptor (Homo sapiens)
protocol: AHR activators, primary screen, cell-based, luminescence, luciferase reporter, human (AID 2796);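 further: 0% = vehicle wells and 100% = reference agonist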
condition.set: AHR-responsive luciferase reporter cells, at 5 µM, active compounds read high
Out of some 320,000 compounds screened, about 8,000 (2.5%) were called active. Shown is part of a subset that was picked to be rich in actives.
# Lookup of reported activation keyed by entry
The figure you give is taken to be in %; do not add the unit.

Solved cases (3 shown):
CN(C(=O)Cn1nnc(-c2ccc(F)cc2)n1)C1CCS(=O)(=O)C1 (stereo not given) : -0.41
O=C(N/N=C/c1c(Cl)[nH]c2ccccc12)c1sc2ccccc2c1Cl : 74.3
CCn1c(=O)c(C(=O)NCc2ccc3c(c2)OCO3)c(O)c2ccccc21 : 1.55

Let's switch to this compound now.
Query block: Name the recorded activation of the compound listed here: CCn1c(CSc2nncn2-c2ccc(OC)cc2)nc2cc(S(=O)(=O)N(C)C)ccc21
Result block: -0.25

* * *

target.under.test: Aryl hydrocarbon receptor (Homo sapiens) (UniProt P35869)
Sequence (P35869 whole entry, looked up): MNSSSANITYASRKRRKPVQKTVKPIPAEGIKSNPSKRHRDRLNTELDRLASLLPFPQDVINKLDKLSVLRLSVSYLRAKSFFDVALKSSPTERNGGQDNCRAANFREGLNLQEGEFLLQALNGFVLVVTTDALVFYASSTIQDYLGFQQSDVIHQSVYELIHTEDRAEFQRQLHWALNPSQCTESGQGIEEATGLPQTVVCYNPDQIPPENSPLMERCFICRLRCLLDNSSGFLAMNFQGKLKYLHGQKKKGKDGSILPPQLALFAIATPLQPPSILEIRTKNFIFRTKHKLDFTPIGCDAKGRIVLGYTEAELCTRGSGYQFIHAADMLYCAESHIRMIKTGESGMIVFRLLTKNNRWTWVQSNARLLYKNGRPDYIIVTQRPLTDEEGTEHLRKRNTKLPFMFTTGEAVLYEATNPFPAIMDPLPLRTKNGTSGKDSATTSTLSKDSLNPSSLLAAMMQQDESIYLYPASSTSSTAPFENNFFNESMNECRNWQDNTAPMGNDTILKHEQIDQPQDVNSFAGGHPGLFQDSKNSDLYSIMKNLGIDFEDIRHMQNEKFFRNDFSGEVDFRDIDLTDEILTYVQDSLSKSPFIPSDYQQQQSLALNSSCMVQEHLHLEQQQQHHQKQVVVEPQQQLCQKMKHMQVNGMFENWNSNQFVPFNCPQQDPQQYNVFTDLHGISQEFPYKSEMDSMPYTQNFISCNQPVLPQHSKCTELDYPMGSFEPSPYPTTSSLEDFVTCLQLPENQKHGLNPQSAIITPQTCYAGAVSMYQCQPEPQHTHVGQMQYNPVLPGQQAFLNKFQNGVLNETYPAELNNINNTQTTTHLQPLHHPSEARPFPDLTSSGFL
protocol: AHR activators, primary screen, cell-based, luminescence, luciferase reporter, human (AID 2796);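 further: 0% = vehicle wells and 100% = reference agonist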
condition.set: AHR-responsive luciferase reporter cells, at 5 µM, active compounds read high
Out of some 320,000 compounds screened, about 8,000 (2.5%) were called active. Only a selection was taken, and actives are over-represented in it overall.
assay.metric: activation (%)
The figure you give is taken to be in %; do not add the unit.

Solved cases (2 shown):
CCc1cc2c(=O)c(-c3ccon3)c(N)oc2cc1OC : 59.6
CC(C)(C)n1nc(Cc2cccc3ccccc23)c(C#N)c1N : 51.2

Let's switch to this molecule now.
Query block: Name the recorded activation of the molecule listed here: COc1ccc(CCNC(=O)c2nnc(CS(=O)(=O)c3ccccc3)o2)cc1OC
Result block: -2.96

* * *

target.under.test: Aryl hydrocarbon receptor (Homo sapiens)
protocol: AHR activators, primary screen, cell-based, luminescence, luciferase reporter, human (AID 2796);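 further: 0% = vehicle wells and 100% = reference agonist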
condition.set: AHR-responsive luciferase reporter cells, at 5 µM
Hit rate of the full screen: of about 320,000 compounds, about 8,000 (2.5%) were called active. No stated cut-off is given here; in the data, active means activation above about 47%; inactive means the rest. This excerpt belongs to a sample that is enriched for actives.
Pick from active, inactive when you respond.

Worked examples follow.
C[C@H](NC(=O)C1CCN(S(=O)(=O)c2ccccc2)CC1)C(=O)NCc1ccccc1 : inactive
O=C(Nc1ccc(Cl)cc1)N1CCc2[nH]c3ccccc3c2C1 : inactive
CN(c1ccccc1)c1ccc(/C=c2\s/c(=C(/C#N)C(=O)C(C)(C)C)n(Cc3ccco3)c2=O)cc1 : inactive
O=C(CCC(=O)NNc1nc2ccccc2c2nc(-c3ccccc3)nn12)NCCCN1CCCC1=O : active
Cc1ccc(Cl)cc1NC(=O)C1CCCN(c2cnccn2)C1 (centres undefined) : active
O=C(CC1C(=O)NCCN1Cc1ccc(-c2ccccc2)cc1)NCc1ccncc1 (centres undefined) : inactive

Query block: Hi, sorry to bother you, what did the test record for O=C(NCc1ccncc1)c1ccc(NS(=O)(=O)c2cccc([N+](=O)[O-])c2)cc1 ?
Result block: inactive

Query block: Hi, sorry to bother you, what did the test record for O=C(CCNC(=O)c1ccccc1Cl)NN=Cc1ccco1 ?
Result block: inactive

* * *

target.under.test: Aryl hydrocarbon receptor (Homo sapiens) (UniProt P35869)
protocol: AHR activators, primary screen, cell-based, luminescence, luciferase reporter, human (AID 2796);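 further: 0% = vehicle wells and 100% = reference agonist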
condition.set: AHR-responsive luciferase reporter cells, at 5 µM, active compounds read high
The whole screen tested about 320,000 compounds, of which about 8,000 (2.5%) were called active. For the sample, actives were picked, then their nearest neighbours and some compounds at random.
assay.metric: activation (%)
The figure you give is taken to be in %; do not add the unit.

Solved cases (3 shown):
O=C(c1ccc(F)cc1)N1CCC(n2nnc3ccccc32)CC1 : -1.01
COc1cc(OC)c(C(=O)NCc2ccc3c(c2)OCO3)cc1OC : 14
Cc1ccccc1NS(=O)(=O)CCCCC(Cl)(Cl)Cl : -0.27

Let's switch to this compound now.
Query block: Name the recorded activation of the compound listed here: Cc1cc(C)cc(NC(=S)NCc2ccc(F)cc2)c1
Result block: 4.28

* * *

target.under.test: Aryl hydrocarbon receptor (Homo sapiens)
protocol: AHR activators, primary screen, cell-based, luminescence, luciferase reporter, human (AID 2796);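 further: 0% = vehicle wells and 100% = reference agonist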
condition.set: AHR-responsive luciferase reporter cells, at 5 µM, active compounds read high
Out of some 320,000 compounds screened, about 8,000 (2.5%) were called active. This is one part of a sample in which actives are shown more often than they occur.
# Lookup of reported activation keyed by entry
The figure you give is taken to be in %; do not add the unit.

Solved cases (10 shown):
CCn1c(CSc2ncccn2)nnc1SCC(=O)N1c2ccccc2CC1C (stereo not drawn) : -1.92
Cc1ccc(NC(=O)c2cc3ccccc3o2)cc1 : 25.5
CCCCOc1ccc(NC(=O)CSCC(=O)OCC)cc1 : -0.97
CC1Cc2ccccc2N1C(=O)CSc1nnc(C2CC2)n1C (stereo not drawn) : 93
CC1Cc2ccccc2N1C(=O)CSc1nnc(-c2ccc(S(=O)(=O)N3CCCC3)cc2)n1C (stereo not drawn) : 1.18
O=C(Nc1nnc(C2CC2)s1)c1ccccn1 : -1.71
O=C(Nc1cccc([N+](=O)[O-])c1)c1ccc2c(c1)OCO2 : 14.3
Cc1cc(C)c(C#N)c(Nc2cccc(Br)c2)n1 : 19.3
CCN1CCCC1CNC(=O)c1cc2c(=O)n(C)c3ccccc3c2n1C (stereo not drawn) : 3.13
CC(C)C(=O)Nc1cccc(C(=O)Nc2ccc3c(c2)OCO3)c1 : 56

Query block: Name the recorded activation of the compound listed here: O=C(c1ccc(Cl)cc1)n1cnc2ccccc21
Result block: -0.68

Query block: Name the recorded activation of the compound listed here: CN1c2ccc([N+](=O)[O-])cc2C(C)(C)C12C=Cc1cc(C(=O)O)ccc1O2 (stereo not drawn)
Result block: 0.9

Query block: Name the recorded activation of the compound listed here: Cn1c(C(=O)NCCCN2CCN(c3cccc(Cl)c3)CC2)cc2c(=O)n(C)c3ccccc3c21
Result block: 7.28

Query block: Name the recorded activation of the compound listed here: COCc1cc(C)nc(Nc2cc(C)ccc2C)c1C#N
Result block: 52.2

Query block: Name the recorded activation of the compound listed here: Clc1ccc(Cl)c(Oc2ccc(Oc3nc(Cl)ccc3Cl)cc2)n1
Result block: -1.7

* * *

target.under.test: Aryl hydrocarbon receptor (Homo sapiens)
protocol: AHR activators, primary screen, cell-based, luminescence, luciferase reporter, human (AID 2796);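 further: 0% = vehicle wells and 100% = reference agonist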
condition.set: AHR-responsive luciferase reporter cells, at 5 µM
Among all 320,000 compounds or so, about 8,000 (2.5%) were called active. No stated cut-off is given here; in the data, active means activation above about 47%; inactive means the rest. This is one part of a sample in which actives are shown more often than they occur.
Pick from active, inactive when you respond.

CC(C)OC(=O)CN1C(=O)C(=O)c2ccccc21 : active
COc1ccc(C(=O)NCC2CCCCC2)cc1S(=O)(=O)N1CCCC1 : inactive
O=C(COC(=O)c1cccnc1Cl)NC(=O)NC1CCCCC1 : inactive
COc1ccc(C(=O)N2CCN(c3ccc(C(C)=O)cc3F)CC2)cc1S(=O)(=O)NC1CC1 : inactive
CC(OC(=O)CN1C(=O)c2ccccc2C1=O)C(=O)c1ccccc1 (stereo not given) : inactive
C=CCN1C(=O)C2(OCCCO2)c2cccc(Cl)c21 : inactive

Query block: Hi, sorry to bother you, what did the test record for COc1cc(C#Cc2ccc3cc(CCCO)oc(=O)c3c2)cc(OC)c1 ?
Result block: inactive

Query block: Hi, sorry to bother you, what did the test record for CCN(CC)CCN(C(=O)c1ccc(N2C(=O)CCC2=O)cc1)c1nc2cc3c(cc2s1)OCO3 ?
Result block: inactive

Query block: Hi, sorry to bother you, what did the test record for O=c1ccnc(Nc2ccc(Cl)cc2)[nH]1 ?
Result block: inactive

Query block: Hi, sorry to bother you, what did the test record for O=C(CCc1c[nH]c2ccccc12)NCCOc1ccccc1 ?
Result block: inactive

Query block: Hi, sorry to bother you, what did the test record for Clc1ccc(Nc2ccc3ccccc3n2)cc1 ?
Result block: active

Query block: Hi, sorry to bother you, what did the test record for COCCN(Cc1ccccc1)C(=O)Cc1ccc(S(=O)(=O)N2CCOCC2)s1 ?
Result block: inactive

Query block: Hi, sorry to bother you, what did the test record for C/C(=N\N)c1c(-c2ccccc2)c2cc(Br)ccc2[nH]c1=O ?
Result block: inactive

Query block: Hi, sorry to bother you, what did the test record for Fc1ccc2cnc(-c3ccccc3)cc2c1 ?
Result block: inactive

Query block: Hi, sorry to bother you, what did the test record for Cc1ccsc1C(=O)N[C@@H](C)c1nnc2ccccn12 ?
Result block: inactive

Query block: Hi, sorry to bother you, what did the test record for COc1ccc(OC)c2sc(NC(=O)C3COc4ccccc4O3)nc12 (stereo not given) ?
Result block: active

Query block: Hi, sorry to bother you, what did the test record for O=C(CCn1c(=S)[nH]c2cc3c(cc2c1=O)OCO3)NCc1ccc(Cl)cc1 ?
Result block: inactive

Query block: Hi, sorry to bother you, what did the test record for COc1ccc(Cc2nnc(SCC(=O)Nc3ccc(C)c(Cl)c3)[nH]c2=O)cc1 ?
Result block: inactive

Query block: Hi, sorry to bother you, what did the test record for O=C(OCC(=O)N1CCN(C(=O)c2ccco2)CC1)c1cccc(O)c1 ?
Result block: inactive

Query block: Hi, sorry to bother you, what did the test record for S=C(NCCc1ccccc1)Nc1ccccc1 ?
Result block: inactive

Query block: Hi, sorry to bother you, what did the test record for O=C1NC[C@@H](Cc2ccc(O)cc2)N(CCc2cccc(F)c2)C1=O ?
Result block: inactive

Query block: Hi, sorry to bother you, what did the test record for COc1ccc(N(CC(=O)N2CCOCC2)S(=O)(=O)c2ccccc2)cc1Cl ?
Result block: inactive
